# tested target: VPS34 (Homo sapiens, UniProt Q8NEB9)
# Construct: GST (N); host or cells: SF9 insect cells (baculovirus)
# Sequence (Q8NEB9 whole entry): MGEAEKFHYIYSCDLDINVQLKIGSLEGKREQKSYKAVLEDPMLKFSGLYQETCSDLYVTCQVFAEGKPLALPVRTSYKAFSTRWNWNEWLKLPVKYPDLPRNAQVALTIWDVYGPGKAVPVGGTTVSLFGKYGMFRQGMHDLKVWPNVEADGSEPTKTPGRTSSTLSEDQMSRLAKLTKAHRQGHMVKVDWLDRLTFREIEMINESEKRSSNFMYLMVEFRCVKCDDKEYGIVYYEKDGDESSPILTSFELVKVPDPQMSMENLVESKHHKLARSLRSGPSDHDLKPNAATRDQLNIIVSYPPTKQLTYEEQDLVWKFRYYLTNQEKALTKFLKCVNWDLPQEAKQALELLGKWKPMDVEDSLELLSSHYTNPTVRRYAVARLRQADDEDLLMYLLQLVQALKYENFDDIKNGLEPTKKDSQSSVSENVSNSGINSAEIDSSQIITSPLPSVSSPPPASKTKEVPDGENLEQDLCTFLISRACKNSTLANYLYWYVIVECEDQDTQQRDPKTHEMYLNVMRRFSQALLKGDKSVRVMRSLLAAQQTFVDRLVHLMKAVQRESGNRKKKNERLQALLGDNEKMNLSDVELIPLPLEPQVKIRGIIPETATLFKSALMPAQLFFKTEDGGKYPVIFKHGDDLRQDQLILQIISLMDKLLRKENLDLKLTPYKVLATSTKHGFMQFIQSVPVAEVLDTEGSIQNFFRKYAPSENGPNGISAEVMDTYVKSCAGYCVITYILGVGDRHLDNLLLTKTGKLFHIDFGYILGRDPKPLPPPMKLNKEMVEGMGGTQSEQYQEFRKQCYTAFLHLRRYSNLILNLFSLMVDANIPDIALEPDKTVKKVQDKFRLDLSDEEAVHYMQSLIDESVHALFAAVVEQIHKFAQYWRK
# experiment: Human VPS34 enzyme assay (Adapta Universal Kinase Assay)
# Type: biochemical
# particulars: 1 h, read-out: VPS34 % ihn
For each of the compounds below, state its inhibition at 1.11 µM.
Answers are plain numbers, in %.

Cc1nn2ccccc2c1-c1nc2c(s1)NC(=O)CCC2c1ccc(Cl)cc1 (centres unmarked); -4.2
O=C1NCC(c2ccc(Cl)cc2)c2cc(N3CCOCC3)sc21 (centres unmarked); 36.3
O=C1CCCC(O)(c2ccc(Cl)cc2)c2cc(-c3ccncc3)sc21 (centres unmarked); 2

Parameter requested: inhibition at 1.11 µM. Apply to each item below.
1. N#Cc1c(N2CCOCC2)sc2c1C(c1ccc(Cl)cc1)NC2=O (centres unmarked)
2. N#Cc1c(N2CCOCC2)sc2c1C(c1ccc(Cl)cc1)CNC2=O (centres unmarked)

[out]
1: 9.44; 2: 4.85
